# procedureText: reversed-phase LC retention time (C18, 15 min MeOH gradient); higher = more hydrophobic / later elution
# testConditions: ionization mode: ESI+; ion species: [M+H]+
Assign reversed-phase LC retention time to each entry below.

compound: CCNc1nc(Cl)nc(NCC)n1 [Simazine]
endpointResult: 11.5 min
//
compound: CC(=O)C1(O)CCC2C3CCC4=CC(=O)CCC4(C)C3CCC21C (stereo not drawn) [17alpha-Hydroxyprogesterone]
endpointResult: 14.5 min
//
compound: CCC[C@H]1CCCCN1 [Coniine]
endpointResult: 6.79 min
//
compound: O=C(Nc1ccccc1)N(Cc1ccc(Cl)cc1)C1CCCC1 [Pencycuron]
endpointResult: 16.1 min

Hello, I would appreciate it if you could give reversed-phase LC retention time for each entry below.
1. CN[C@H]1CC[C@@H](c2ccc(Cl)c(Cl)c2)c2ccccc21 [Sertraline]
2. CC[C@H]1OC(=O)[C@H](C)[C@@H](O[C@H]2C[C@@](C)(OC)[C@@H](O)[C@H](C)O2)[C@H](C)[C@@H](O[C@@H]2O[C@H](C)C[C@H](N(C)C)[C@H]2O)[C@](C)(O)C[C@@H](C)C(=O)[C@H](C)[C@@H](O)[C@]1(C)O [Erythromycin]
3. O=S(=O)(c1ccc(O)cc1)c1ccc(O)cc1 [Bisphenol S]
4. Nc1ccc(S(=O)(=O)Nc2ccccn2)cc1 [Sulfapyridine]
5. O=c1cc(-c2ccc(O)cc2)oc2cc(O[C@@H]3O[C@H](CO)[C@@H](O)[C@H](O)[C@H]3O[C@@H]3OC[C@](O)(CO)[C@H]3O)cc(O)c12 [Apiin]
6. CCCCOCCOCCOCCO [Triethylene Glycol Monobutyl Ether]

## Output
1: 13.8 min; 2: 13 min; 3: 9.38 min; 4: 6.69 min; 5: 10.3 min; 6: 11.2 min

Count: 6. Required value per item: reversed-phase LC retention time.
1. CCOP(=O)(OCC)OCC [Triethylphosphate]
2. O=C(Nc1ccc(F)cc1)c1cccc(Oc2cccc(C(F)(F)F)c2)n1 [Picolinafen]
3. CCCCCCCCCCCCCCCC(=O)NCCO [Palmitoylethanolamide]
4. CC(=O)CCCCn1c(=O)c2c(ncn2C)n(C)c1=O [Pentoxifylline]
5. CC(C)(C)c1ccc(CSc2cnn(C(C)(C)C)c(=O)c2Cl)cc1 [Pyridaben]
6. O=c1c(-c2ccc(O)cc2)coc2cc(O)cc(O)c12 [Genistein]

## Output
1: 10.7 min; 2: 16.8 min; 3: 18.3 min; 4: 9.78 min; 5: 17.9 min; 6: 11.9 min

Lookup result for C=CCOC(Cn1ccnc1)c1ccc(Cl)cc1Cl (configuration not stated) [Imazalil] ; measured reversed-phase LC retention time: 12.7 min
